target: ApoE3 (Homo sapiens, UniProt P02649); construct: gene APOE; His6-thioredoxin tag removed by HRV 3C protease; E. coli Rosetta2(DE3); experiment: isothermal titration calorimetry (protein injected into compound); assay type: binding
Sequence (P02649 19-317): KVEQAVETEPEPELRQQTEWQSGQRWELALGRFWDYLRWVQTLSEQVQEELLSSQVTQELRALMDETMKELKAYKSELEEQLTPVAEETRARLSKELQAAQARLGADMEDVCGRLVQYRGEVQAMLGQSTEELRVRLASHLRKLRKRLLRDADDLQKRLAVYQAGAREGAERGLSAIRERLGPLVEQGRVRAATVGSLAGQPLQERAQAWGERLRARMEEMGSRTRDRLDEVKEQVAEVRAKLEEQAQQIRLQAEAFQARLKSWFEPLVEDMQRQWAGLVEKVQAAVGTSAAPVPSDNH
PROPERTY_MEASURED: pKd
// pKd is dimensionless: -log10 of concentration (M)

*Q* Return value of pKd for input O=C(O)c1cc2ccccc2c(Cc2c(O)c(C(=O)O)cc3ccccc23)c1O [Pamoic acid] , no commentary.
*A* 3.92

*Q* Report pKd, nothing else, for this molecule: CCN(CC)CCOc1ccc(C(=C(Cl)c2ccccc2)c2ccccc2)cc1 [Clomifene]
*A* 4.62

*Q* Please give measured pKd of the following entry: Cc1ccc(Cl)c(Nc2ccccc2C(=O)O)c1Cl [Meclofenamic acid]
*A* 4.33

###

target: ApoE4 (Homo sapiens, UniProt P02649, C130R); construct: gene APOE; full-length mature ApoE4, codon-optimized gene in pET17b; His6-thioredoxin tag removed by HRV 3C protease; E. coli Rosetta2(DE3); experiment: microscale thermophoresis (Red-NHS labelled ApoE4, initial fluorescence); assay type: binding
Sequence (P02649 19-317 C130R): as the sequence (P02649 19-317) above, with C112R counted along it
PROPERTY_MEASURED: pKd
Entry type: numeric. Quantity: pKd, the -log10 of concentration in molar units.

SMILES_TEXT: CC/C(=C(\c1ccccc1)c1ccc(OCCN(C)C)cc1)c1ccccc1
REPORTED_MEASUREMENT: 4.17

*Q* Identify measured pKd associated with CN(C)CCOc1ccc(/C(=C(/CCCl)c2ccccc2)c2ccccc2)cc1
*A* 4.36

###

molecular target: ApoE4 (Homo sapiens, UniProt P02649, C130R); construct: gene APOE; full-length mature ApoE4, codon-optimized gene in pET17b; His6-thioredoxin tag removed by HRV 3C protease; E. coli Rosetta2(DE3); assay: isothermal titration calorimetry (protein injected into compound); type: binding; conditions: read-out: ApoE4
PROPERTY_MEASURED: pKd
Lab note: report pKd as minus log10 of the concentration in molar units, number only.

SMILES_TEXT: CCN(CC)CCOc1ccc(C(=C(Cl)c2ccccc2)c2ccccc2)cc1
pKd: 4.82

Consider the record given below.
*Q* Give pKd for the following compound: O=C(O)c1ccc2nc(-c3cc(Cl)cc(Cl)c3)oc2c1
*A* 5.10

###

target: ApoE2 (Homo sapiens, UniProt P02649, R176C); construct: His6-thioredoxin tag removed by HRV 3C protease; E. coli Rosetta2(DE3); experiment: isothermal titration calorimetry (protein injected into compound)
Sequence (P02649 19-317 R176C): as the sequence (P02649 19-317) above, with R158C counted along it
Quick reference: Kd of the listed items.
// return numeric value only (unit: µM, not printed)

COMPOUND: CCN(CC)CCOc1ccc(C(=C(Cl)c2ccccc2)c2ccccc2)cc1 [Clomifene]
REPORTED_MEASUREMENT: 67
//
COMPOUND: O=C(O)c1ccc2nc(-c3cc(Cl)cc(Cl)c3)oc2c1 [Tafamidis]
REPORTED_MEASUREMENT: 6
//
COMPOUND: N[C@@H](Cc1cc(I)c(Oc2cc(I)c(O)c(I)c2)c(I)c1)C(=O)O [L-Thyroxine]
REPORTED_MEASUREMENT: 33
//
COMPOUND: Cc1ccc(Cl)c(Nc2ccccc2C(=O)O)c1Cl [Meclofenamic acid]
REPORTED_MEASUREMENT: 47

Let's switch to this compound now.
*Q* Please indicate Kd recorded for O=C(O)c1cc2ccccc2c(Cc2c(O)c(C(=O)O)cc3ccccc23)c1O [Pamoic acid]
*A* 55

###

target: ApoE4 (Homo sapiens, UniProt P02649, C130R); construct: gene APOE; full-length mature ApoE4, codon-optimized gene in pET17b; His6-thioredoxin tag removed by HRV 3C protease; E. coli Rosetta2(DE3); experiment: isothermal titration calorimetry (protein injected into compound); assay type: binding; conditions: read-out: ApoE4
PROPERTY_MEASURED: pKd
// pKd here means minus log10 of the molar concentration (mol/L)

COMPOUND: Cc1ccc(Cl)c(Nc2ccccc2C(=O)O)c1Cl [Meclofenamic acid]
TESTED_TARGET: ApoE4 (Homo sapiens, UniProt P02649, C130R)
PROPERTY_MEASURED: pKd
REPORTED_MEASUREMENT: 4.35
--
COMPOUND: O=C(O)c1cc2ccccc2c(Cc2c(O)c(C(=O)O)cc3ccccc23)c1O [Pamoic acid]
TESTED_TARGET: ApoE4 (Homo sapiens, UniProt P02649, C130R)
PROPERTY_MEASURED: pKd
REPORTED_MEASUREMENT: 4.42

Below: the item to evaluate.
*Q* State measured pKd of the compound N[C@@H](Cc1cc(I)c(Oc2cc(I)c(O)c(I)c2)c(I)c1)C(=O)O [L-Thyroxine] with ApoE4 (Homo sapiens, UniProt P02649, C130R).
*A* 4.74

Cited source for all entries: paper PMC6406525
